Here, each record is paired with measured ratio to parent data.
B1: H2-Kb / B13 (parent)
chain 1: AQKVTQTQTSISVMEKTTVTMDCVYETQDSSYFLFWYKQTASGEIVFLIRQDSYKKENATVGHYSLNFQKPKSSIGLIITATQIEDSAVYFCAMREGTGGYKVVFGSGTRLLVSP
chain 2: EAAVTQSPRNKVTVTGGNVTLSCRQTNSHNYMYWYRQDTGHGLRLIHYSYGAGNLQIGDVPDGYKATRTTQEDFFLLLELASPSQTSLYFCASSDGTGHEQYFGPGTRLTVL
chain 3: not shown
chain 4: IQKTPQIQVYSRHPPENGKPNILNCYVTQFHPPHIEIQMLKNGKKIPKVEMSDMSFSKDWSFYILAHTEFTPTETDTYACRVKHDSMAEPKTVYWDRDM
chain 5: SIINFEKL

variants of: B1; assay: % of reporter cells activated (NFAT-GFP), raw; settings: with B13; scale: % of reporter cells activated; also: test concentration or dose not given here
# print the numeric value only

Solved entries:
chain 5 E6S | 0.0411
chain 5 L8E | 2.13
chain 5 K7P | 0.0545
chain 5 E6M | 0.0342
chain 5 I3V | 2.29
chain 5 E6I | 0.0222
chain 5 N4F | 0.393
chain 5 K7G | 0.471

Exercise: Tell me the measured ratio to parent of chain 5 L8S , please.
Solution: 2.06

Exercise: Tell me the measured ratio to parent of chain 5 S1K , please.
Solution: 0.64

Exercise: Tell me the measured ratio to parent of chain 5 I3C , please.
Solution: 5.34

Exercise: Tell me the measured ratio to parent of chain 5 I3E , please.
Solution: 4.51

Exercise: Tell me the measured ratio to parent of chain 5 L8Q , please.
Solution: 0.247

Exercise: Tell me the measured ratio to parent of chain 5 K7N , please.
Solution: 1.14

Exercise: Tell me the measured ratio to parent of chain 5 S1G , please.
Solution: 0.236

Exercise: Tell me the measured ratio to parent of chain 5 L8D , please.
Solution: 2.32
